Measured values drawn from patent US20230233569A1 for this set.

TESTED_ON: KRAS G12D (Homo sapiens, UniProt P01116+P62937, G12D)
Sequence (P01116 1-169 isoform P01116-2 G12D limits assumed): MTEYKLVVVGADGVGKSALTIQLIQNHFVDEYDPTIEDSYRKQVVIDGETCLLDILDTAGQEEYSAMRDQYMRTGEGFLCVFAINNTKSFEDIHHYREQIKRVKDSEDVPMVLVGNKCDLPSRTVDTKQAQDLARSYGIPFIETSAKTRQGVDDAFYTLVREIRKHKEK
Sequence (P62937 whole entry): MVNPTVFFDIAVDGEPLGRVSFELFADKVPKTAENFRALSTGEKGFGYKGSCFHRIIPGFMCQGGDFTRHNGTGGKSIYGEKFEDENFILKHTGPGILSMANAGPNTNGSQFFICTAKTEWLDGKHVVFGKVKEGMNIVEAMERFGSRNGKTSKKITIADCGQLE
MEASUREMENT_PROTOCOL: Disruption of BRAF RBD interaction with Ras (FRET / MOA assay, with Cyclophilin A)
Format: biochemical
SETUP_CONDITIONS: read-out: KRAS G12D FRET data, IC50
pIC50: −log10 of the molar value.
PARAMETER: pIC50

Below are worked cases with known answers.
C=CC(=O)N1CCOC2(CCN(C(=O)N(C)[C@H](C(=O)N[C@H]3CN4CCC=C(C4)c4ccc5c(c4)c(c(-c4cccnc4[C@H](C)OC)n5CC)CC(C)(C)COC(=O)[C@@H]4CCCN(N4)C3=O)C(C)C)CC2)C1 : < 5.00
CCn1c(-c2cccnc2[C@H](C)OC)c2c3cc(ccc31)-c1csc(n1)C[C@H](NC(=O)[C@H](C(C)C)N(C)C(=O)N1CCN3CCOC[C@H]3C1)C(=O)N1CCC[C@H](N1)C(=O)OCC(C)(C)C2 : 5.00 to 6.00
CCn1c(-c2cccnc2[C@H](C)OC)c2c3cc(ccc31)-c1cc(O)cc(c1)C[C@H](NC(=O)[C@H](C(C)C)N(C)C(=O)[C@H]1CCCNC1)C(=O)N1CCC[C@H](N1)C(=O)OCC(C)(C)C2 : 7.00 to 8.00

GET /values?readout=pIC50&item= CCn1c(-c2ccccc2CCOC)c2c3cc(ccc31)-c1cc(O)cc(c1)C[C@H](NC(=O)[C@H](C(C)C)N(C)C(=O)C1CCN(C(=O)/C=C/CN(C)C)CC1)C(=O)N1CCC[C@H](N1)C(=O)OCC(C)(C)C2
< 5.00
